The measured values listed here are drawn from patent US9962388B2.

assay: in vivo; details: male, SD, rat, po, 5 mg/kg, 2 h
Would you kindly list Mean plasma drug concentration for each of these compounds?
One number for each entry, in nM.

CCCCOc1nc(N)c2[nH]cc(Cc3ccc(CN4CCCC4)cc3)c2n1 : 186

Moving on to another compound below.
Quick one: Mean plasma drug concentration of CCCCOc1nc(N)c2c(n1)N(Cc1cccc(CN3CCCC3)c1)CC(=O)N2 [GS-9620, reference compound] ? 136

---

assay: in vivo; conditions: male, SD, rat, iv, 1 mg/kg
READOUT KIND: AUC(0-t) (µM·h)
Numbers only, in µM·h.

CCCCOc1nc(N)c2c(n1)N(Cc1cccc(CN3CCCC3)c1)CC(=O)N2 [GS-9620, reference compound] : 0.185

Quick one: AUC(0-t) of CCCCOc1nc(N)c2[nH]cc(Cc3ccc(CN4CCCC4)cc3)c2n1 ? 0.641

---

Would you kindly list Mean plasma drug concentration for each of these molecules?
Assay: in vivo
Details: male, SD, rat, iv, 1 mg/kg, 1 h
Procedure: 12 male SD rats were divided into 4 groups with 3 SD rats in each group. […] […] Each rat with oral administration was collected for whole blood samples which were prepared into plasma 15, 30 min and 1, 2, 4, 8, 24 h continuously after administration.
Give bare numbers, in nM.

CCCCOc1nc(N)c2c(n1)N(Cc1cccc(CN3CCCC3)c1)CC(=O)N2 [GS-9620, reference compound] : 48.1

Quick one: Mean plasma drug concentration of CCCCOc1nc(N)c2[nH]cc(Cc3ccc(CN4CCCC4)cc3)c2n1 ? 74.3

---

assay: in vivo; conditions: male, SD, rat, iv, 1 mg/kg, 0.5 h
Would you kindly list Mean plasma drug concentration for each of these compounds?
One number for each entry, in nM.

CCCCOc1nc(N)c2c(n1)N(Cc1cccc(CN3CCCC3)c1)CC(=O)N2 [GS-9620, reference compound] : 65.4

Quick one: Mean plasma drug concentration of CCCCOc1nc(N)c2[nH]cc(Cc3ccc(CN4CCCC4)cc3)c2n1 [Example 21] ? 109

---

Would you kindly list Vd for each of these compounds?
assay: in vivo; conditions: male, SD, rat, iv, 1 mg/kg
One number for each entry, in L/kg.

CCCCOc1nc(N)c2[nH]cc(Cc3ccc(CN4CCCC4)cc3)c2n1 : 29

Moving on to another compound below.
Quick one: Vd of CCCCOc1nc(N)c2c(n1)N(Cc1cccc(CN3CCCC3)c1)CC(=O)N2 [GS-9620, reference compound] ? 32.8

---

test: in vivo; conditions: male, SD, rat, po, 5 mg/kg, 24 h
READOUT KIND: Mean plasma drug concentration
Give me the value, and tack the unit on after it.

Quick one: Mean plasma drug concentration of CCCCOc1nc(N)c2[nH]cc(Cc3ccc(CN4CCCC4)cc3)c2n1 ? 5.25 nM

---

experiment: in vivo; conditions: male, SD, rat, iv, 1 mg/kg, 4 h
Would you kindly list Mean plasma drug concentration for each of these molecules?
Numbers only, in nM.

CCCCOc1nc(N)c2[nH]cc(Cc3ccc(CN4CCCC4)cc3)c2n1 : 37.7

Moving on to another molecule below.
Quick one: Mean plasma drug concentration of CCCCOc1nc(N)c2c(n1)N(Cc1cccc(CN3CCCC3)c1)CC(=O)N2 [GS-9620, reference compound] ? 13
